Tested on: DU-145
Experiment: NCI tumour cell line growth inhibition, 48 h
The source made the active and inactive calls. Cut-off read from the data, not from the text of the source: active = GI50 up to about 1.1 µM and inactive = higher.
quantity_name: GI50

Here are 3 compounds together with their reported answers.
1) S=C(N/N=C(\C(=N/NC(=S)N1CCCCC1)c1ccccn1)c1ccccn1)N1CCCCC1 ... 14.9 µM (inactive)
2) CCOC(=O)c1c2ccccc2n2c(=O)n(-c3ccccc3)nnc12 ... > 100 µM (inactive)
3) Nc1ncnc2c1ncn2C=C=CCO ... > 100 µM (inactive)

Ask: Suppose we examine the compound COc1cc(C2S/C(=C/c3ccccc3)C(=O)N2c2ccc(Cl)cc2)cc(OC)c1OC (stereo unspecified) ; what GI50 value has been reported?
Reply: 54.2 µM (inactive)

Ask: Param item = NC(=O)NNC(=O)c1nc[nH]c1[N+](=O)[O-] ; retrieve measured GI50.
Reply: > 100 µM (inactive)

Ask: GET /values?readout=GI50&item= Cc1cc(Cl)nc2nc(Cl)c(N)cc12
Reply: 7.03 µM (inactive)

###

Test system: RPMI-8226
Experiment: NCI tumour cell line growth inhibition, 48 h
Active and inactive are the calls of the source. Cut-off read from the data, not from the text of the source: active = GI50 up to about 1.1 µM and inactive = higher.
quantity_name: GI50

# annotated cases, reported GI50 shown
1. O=S(=O)(Nc1nccs1)c1ccc([As](=O)(O)O)cc1 ... > 100 µM (inactive)
2. CCOc1ccccc1NC(=O)C(=O)C1C(=O)Nc2ccccc2[S+]1[O-] (stereo unspecified) ... > 100 µM (inactive)
3. N#CC(NNC(=O)Cc1ccccc1)c1ccc(O)cc1 (stereo unspecified) ... > 100 µM (inactive)
4. CCOC(=O)c1ccc(OCc2nc3cc(C(F)(F)F)ccc3nc2-c2ccccc2)cc1 ... > 100 µM (inactive)
5. CC1(C)CC(=O)C2=C(C1)C(c1ccccc1Cl)C1C(=O)CC(C)(C)CC1(O)O2 (stereo unspecified) ... > 84.1 µM (inactive)

Ask: // GI50 lookup, key: O=C1CN(c2ccc(Cl)cc2)C(=O)CN1CCN1CC(=O)N(c2ccc(Cl)cc2)CC1=O
Reply: > 100 µM (inactive)

Ask: Quick check: GI50 of CCC[C@H](N[S+]([O-])c1ccc(C)cc1)C(C(=O)OCC)=C(c1ccccc1)c1ccccc1 (stereo partly specified) ?
Reply: 18.7 µM (inactive)

Ask: For the compound CCOC(=O)C1(C(=O)OCC)CCCN1C(=O)[C@H](CNC(=O)OC(C)(C)C)NC(=O)OCc1ccccc1 , what GI50 is on record?
Reply: 31.3 µM (inactive)

Ask: Requested field: GI50. Item: O=C(O)c1ccccc1NC(c1ccccc1)c1ccc2cccnc2c1O (stereo unspecified)
Reply: 3.04 µM (inactive)

Ask: Item Cc1cc(N(CCC#N)CCC#N)ccc1/C=C1N=C(/C=C/c2ccccc2)OC(=O)N\1 has what recorded GI50?
Reply: > 100 µM (inactive)

###

System: SR
Experiment: NCI tumour cell line growth inhibition, 48 h
Active and inactive are the calls of the source. No stated cut-off is given here; in the data, active = GI50 up to about 1.1 µM and inactive = higher.
Field 'call' accepts active, inactive

Ask: Please indicate how the test categorized Cc1cc(NC2=CC(=O)C(=O)c3ccccc32)no1 .
Reply: inactive

Ask: What did the test return for COc1cccc2c1C(=O)c1c(O)c3c(c(O)c1C2=O)C[C@@](O)(C(C)=O)C[C@@H]3OC1CC(N(Cc2ccccc2)Cc2ccccc2)C(O)C(C)O1 (some centres undefined) ?
Reply: active

Ask: Name the outcome recorded for CC(=O)OCCCCn1cnc2nc(Nc3ccccc3)nc(Cl)c21 in the assay.
Reply: inactive

###

Tested on: HCC 2998
Assay: NCI tumour cell line growth inhibition, 48 h
Active and inactive are the calls of the source. No stated cut-off is given here; in the data, active = GI50 up to about 1.1 µM and inactive = higher.
Your reply should match one of these outcome classes. active, inactive

1. BrC1=C(Br)C2(SCCS2)[C@H]2C[C@@H]1c1ccccc12 ... inactive
2. N#CC(c1ccccc1)N(CCCCCCN(C(=O)c1ccccc1)C(C#N)c1ccccc1)C(=O)c1ccccc1 (stereo not drawn) ... inactive
3. Brc1ccc2[nH]cc([C@H]3CN[C@@H](c4c[nH]c5ccc(Br)cc45)CN3)c2c1 ... inactive
4. CC1=C(C#N)C(=O)N(/N=C/c2ccc(Cl)cc2)C(=O)/C1=c1\o/c(=C2/C(=O)N(/N=C/c3ccc(Cl)cc3)C(=O)C(C#N)=C2C)c2nccnc12 ... inactive
5. N/C(=N\O)NCCN1CCCCCCC1 ... inactive

Ask: Would you mind telling me which call this test gave Cc1nc(C)c(N2CCN(Cc3ccccc3)CC2)c(O)n1 ?
Reply: inactive

Ask: Could you please tell me the result logged for O=C(O)C(C(=O)O)P(=S)(S)c1ccccc1 (stereo not drawn) in this assay?
Reply: inactive

Ask: Recorded test outcome, item Cn1ccc(C(=O)NCCN(CCNC(=O)c2ccn(C)c(=O)c2O)CCNC(=O)c2ccn(C)c(=O)c2O)c(O)c1=O
Reply: inactive

Ask: Which result was noted for this molecule in the test: CCCCCCCCCCCCCCCCCCNC(=S)N/C=C1\C(=O)Nc2ccccc2C1=O
Reply: inactive

Ask: In this assay, the call recorded for COC(=O)c1sc(=O)sc1SCc1cccc(CSc2sc(=O)sc2C(=O)OC)c1 was what?
Reply: inactive

Ask: Could you check what this test reported for NCCCCN(CCCN)Cc1ccccc1 ?
Reply: inactive

Ask: Name the outcome recorded for O=C(O)c1ccccc1NC(c1ccccc1)c1ccc2cccnc2c1O (stereo not drawn) in the assay.
Reply: inactive

###

System: SNB-75
Assay: NCI tumour cell line growth inhibition, 48 h
Calls of active or inactive are those of the source. No stated cut-off is given here; in the data, active = GI50 up to about 1.1 µM and inactive = higher.
quantity_name: GI50

Ask: Query (compound): OCc1ccc(C2CC(c3ccco3)=NN2c2ccccc2)o1 (stereo not given) ; field requested: GI50
Reply: 20 µM (inactive)

Ask: Reported GI50 for CN(C(=O)c1ccc2c(c1)sc1c(=O)n(C)c3ccccc3c12)c1ccccc1 : what is it?
Reply: > 100 µM (inactive)

Ask: Request the reported GI50 associated with O=C1CN(c2ccc(Cl)cc2)C(=O)CN1CCN1CC(=O)N(c2ccc(Cl)cc2)CC1=O
Reply: > 100 µM (inactive)

Ask: Query (compound): CCCCCCCCCCCCCCCCC(C(=O)O)C(O)(CC(=O)O)C(=O)O (stereo not given) ; field requested: GI50
Reply: 20 µM (inactive)

Ask: For the compound shown here, OC12c3ccccc3C1CCCCCC21OCCCO1 (stereo not given) , give the reported GI50.
Reply: > 100 µM (inactive)

Ask: # query: GI50 of entry CCC[C@H](N[S+]([O-])c1ccc(C)cc1)C(C(=O)OCC)=C(c1ccccc1)c1ccccc1 (stereo not given in full)
Reply: 17.8 µM (inactive)

Ask: Return reported GI50; argument: COC(=O)C(C(=O)C(=O)Nc1nnc(S)[nH]1)c1csc(N)n1 (stereo not given)
Reply: > 100 µM (inactive)

Ask: Endpoint output: GI50 of CSc1ncc2c(n1)C(C#N)C1Sc3ccccc3N1C2=O (stereo not given) . Value?
Reply: 22.9 µM (inactive)

Ask: Bench note: what GI50 did C/C(=N/NC(=O)c1ccccc1Nc1ccccc1C(=O)N/N=C(\C)c1ccc(C)cc1)c1ccc(C)cc1 show?
Reply: > 100 µM (inactive)

Ask: Field request: GI50 | item: COc1ccc2nc(N/N=C/c3sccc3C)cc(C)c2c1
Reply: 15 µM (inactive)

###

Tested on: HCC 2998
Experiment: NCI tumour cell line growth inhibition, 48 h
The source made the active and inactive calls. Rule as the data show it: active = GI50 up to about 1.1 µM and inactive = higher.
quantity_name: GI50

// known answers, use as guide
1. CC1=CC(=O)/C(=C/Nc2nc(-c3cccc([N+](=O)[O-])c3)cs2)C(=O)O1 ... 31.9 µM (inactive)
2. O=C1C(Cl)=C(NCCCN2CCOCC2)C(=O)c2c(O)ccc(O)c21 ... 2.2 µM (inactive)
3. CCOC(=O)/C=C(/C(=O)OCC)n1ccc(=O)n(Cc2cnnn2CCCCOC(C)=O)c1=O ... > 100 µM (inactive)
4. CC1(C)SC2C(C(=O)O)N=C(Cc3ccccc3)N2C1C(=O)O (stereo not given) ... 25.3 µM (inactive)
5. O=[N+]([O-])c1ccc(/C=N/C2CCCCC2)cc1 ... > 100 µM (inactive)
6. Cc1ccc(C)n2c1nc1ccc3ccccc3c12 ... > 100 µM (inactive)
7. COc1ccc2cc(C(C)C(O)c3cc(F)c(F)c(F)c3F)ccc2c1 (stereo not given) ... > 100 µM (inactive)
8. C=CCn1c(=O)c(C)cn(/C(=C/C(=O)OCC)C(=O)OCC)c1=O ... 17.4 µM (inactive)

Ask: Could you share which GI50 value was measured for CCOc1ccc(NC2=NC(=O)C(CC(=O)Nc3ccccc3[N+](=O)[O-])S2)cc1 (stereo not given) ?
Reply: > 100 µM (inactive)

Ask: GI50 lookup needed for COC(OC)[C@@H]1OC[C@@H](O)[C@@H]1n1cnc2c(N)ncnc21 , thanks.
Reply: > 100 µM (inactive)

Ask: State the recorded GI50 for this entry: ClC1(Cl)C(c2ccccc2)C1c1ccccc1 (stereo not given)
Reply: 11.1 µM (inactive)

Ask: Given CC(OC(=O)C(CC(=O)OC(C)(C)C)NC(=O)OC(C)(C)C)C(=O)OCc1ccccc1 (stereo not given) , state its recorded GI50.
Reply: > 100 µM (inactive)

Ask: # lookup: GI50 of CCOC(=O)NC(=O)c1cn(C2OC(COC(=O)CCCCCCCCC(=O)OCC3OC(n4cc(C(=O)NC(=O)OCC)c(=O)[nH]c4=O)C4OC(C)(C)OC34)C3OC(C)(C)OC32)c(=O)[nH]c1=O (stereo not given)
Reply: 57.3 µM (inactive)

Ask: Item under review: COc1cc2ccc3c4cc(OC)c(OC(C)C)cc4cnc3c2cc1OC . Reported GI50?
Reply: > 100 µM (inactive)

Ask: Name the recorded GI50 for O=C(NC1C=Nc2ccccc2NC1=O)c1ccccc1Cl (stereo not given) .
Reply: 56.4 µM (inactive)
